- Tested on: Pichia anomala (DSM 6766)
- test_details: Antimicrobial assay (MIC), P. anomala
- Assay type: cell-based
- study_conditions: Pichia anomala; overnight incubation; n.i. = no inhibition up to 67 μg/mL

# compound, MIC
data = [
    ("C[C@@H]1[C@H](O)[C@@H](C)/C=C/C=C/CC/C=C/C=C/C=C/C=C/C(O[C@H]2O[C@H](C)[C@@H](O)[C@H](N)[C@@H]2O)CC2O[C@](O)(CC(O)C(O)CCC(O)CC(O)CC(O)CC(=O)O[C@H]1C)CC(O)C2C(=O)O (stereo partly drawn) [nystatin, reference compound]", "8.30^N μg/mL"),
    ("CC(C)=CC[C@H]1C=C(CO)C=COC1=O [Compound 6, 1,5-secovibralactone]", "n.i."),
    ("CC(C)(O)[C@H]1C[C@H](CC2=CC(=O)OC2)C(=O)O1 [Compound 5, vibralactones Z2]", "n.i."),
    ("CC(C)(O)[C@H]1C[C@@H](CC2=CC(=O)OC2)C(=O)O1 [Compound 4, vibralactones Z1]", "n.i."),
    ("CC(=O)O[C@@H]1CC2C3=C(C(C)C)CC[C@]3(C)CC[C@@]2(C)[C@@H](OC2OC[C@@H](O)[C@H](O)[C@H]2O)C=C1C=O (stereo partly drawn) [Compound 7, erinacine P]", "n.i."),
    ("COc1ccc([C@H](O)[C@H](C)O)cc1 [Compound 11, (4-methoxyphenyl)-1,2-propanediol]", "n.i."),
]

The reported measurements were obtained from paper PMC11044139.
